Target: T1, rat BMPR1B overexpressed on the surface of HEK293T cells (N-terminal Asp-Lys epitope tag, … (rat, UniProt A0A8I6A0G0 62-550))
T1 construct: whole, on cells
T1 sequence (chain, as listed by the source): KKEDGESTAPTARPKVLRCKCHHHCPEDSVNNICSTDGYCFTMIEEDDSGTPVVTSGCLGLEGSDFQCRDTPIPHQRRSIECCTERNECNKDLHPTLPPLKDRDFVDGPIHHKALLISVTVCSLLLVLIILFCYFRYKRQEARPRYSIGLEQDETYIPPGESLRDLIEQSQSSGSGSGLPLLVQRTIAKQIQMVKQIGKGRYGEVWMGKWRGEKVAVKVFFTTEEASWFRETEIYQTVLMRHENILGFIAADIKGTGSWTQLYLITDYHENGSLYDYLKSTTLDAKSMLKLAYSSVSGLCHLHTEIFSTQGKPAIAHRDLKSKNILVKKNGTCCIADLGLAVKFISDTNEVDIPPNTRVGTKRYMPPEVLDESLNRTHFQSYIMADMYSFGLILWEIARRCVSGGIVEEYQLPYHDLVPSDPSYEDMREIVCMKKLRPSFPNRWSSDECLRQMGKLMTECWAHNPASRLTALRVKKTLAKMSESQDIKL
Assay: flow cytometry
Outcome: 1 for gMFI of at least 10000; -1 for anything lower.

Confirm if gMFI reported for the binder SC91.149 (antibody, V domains shown) VH: QVQLLQPGAELVKPGSSVKVSCKASGYTFTNYWMQWVKQRPGQGLEWIGEIDPSDTYTLYNQKFKGKATLTVDTSSSTAYMQLSSLTSEDSAVYYCARFGYYVDYWGQGTTLTVSS VL: DVVMTQTPLSLPVSLGDQASISCRSSQSLVHSTGNTYFHWYLQKPGQSPELLIYKVSNRFSGVPDRFRGSGSGTDFTLKISRVEAEDLGVYFCSQSTHVPFTFGSGTKLEIK is 10000 or above.
1

Assess whether reported gMFI for SC91.111 (antibody, V domains shown, copies: 2 + 2) VH: QIQLVQSGPELKKPGETVKISCKASGYTLTTYGMNWVKQAPGKGLKWMGWINTYSGVPAYADDFKGRFAFSLETSASTAYLQINNFKNEDTATYFCARSELRNWYFDVWGTGTTVTVSS VL: SFVMTQTPKFLLVSAGDRVTITCKASQNMGHNVAWYQQKPGQSPKLLIYYASNRYTGVPDRFTGSGYGTDFTFTISTVQAEDLAVYFCQQDYSSPFTFGSGTKLEIK sits at 10000 or higher.
-1

Evaluate SC91.155 (antibody, V domains shown) VH: QIQLVQSGPELKKPGETVKISCKASGYTFTTYGMNWVKQAPGKGLKWMGWINSYSGVPAYADDFKGRFAFSLETFASTAYLQINNLRDEDTATYFCARSELRNWYFDVWGTGTTVTVSS VL: SFVMTQTPKFLLVSAGDRVTITCKASQNLGNDVAWYQQKPGQSPRLLIYFASNRYTGVPDRFTGSGYGTDFTFTISTVQAEDLAVYFCQQDYSSPFTFGSGTKLEIK : gMFI at minimum 10000?
-1

# bool: gMFI of SC91.172 (antibody, V domains shown) VH: QVQLQQPGADLVKPGTSVKLSCKASGYTFTSYWMQWVKQRPGQGLEWIGEIDPSDTYTMYNQKFKGKATLTVDTSSSTAYMQLSSLTSEDSAVYYCARFGYYVDYWGQGTTLTVSS VL: DVVMTQTPLSLPVSLGDQASISCRSSQSLVHSTGNTYLHWYLQKAGQSPKLLIYKVSNRFSGVPDRFSGSGSGTDFTLKISRVEAEDLGVYFCSQSTHVPFTFGSGTKLEIK >= 10000
-1

Given SC91.187 (antibody, V domains shown) VH: QVQLQQPGPEFVKPGASVKLSCKASGYTFTSYWVQWVKQRPGQGLEWIGEIDPSDNYTLYNQNFKGKATLTVDTSSSTAYMQLSSLTSEDSAVYYCARFGFYVDYWGQGTTLTVSS VL: DVVMTQTPLSLPVSLGEQASISCRSSQSLVHSTGNTYLHWYLQKPGQSPKLLIYKVSNRFSGVPDRFSGSGSGTDFTLKISRVEAEDLGVYFCSQSTHVPFTFGSGTKLEIK , state whether its gMFI is at least 10000.
-1
